- Tested on: BT-549 breast
- method.notes: NCI-60 one-dose screen, 48 h (100 = growth as untreated, 0 = no growth, -100 = all killed)
- measurement.context: 10 µM unless noted
About 83,000 compounds went through this panel and 20% of them were active in at least one assay; those are over-represented in the sample as a whole.
Cut-off 80% on growth: below means Met, at or above means Not met.

Clc1ccc(CSc2nnc(-c3ccc(Cl)cc3)n2-c2ccccc2)cc1 | Met

Now consider a different compound.
## Input Record Cc1ccccc1Nc1nc(SC(C)C)nc(-c2ccccc2)c1C#N : is its growth strictly below 80%?
## Output Not met

----------
- System: NCI-H522 lung
- method.notes: NCI-60 one-dose screen, 48 h (100 = growth as untreated, 0 = no growth, -100 = all killed)
- measurement.context: 10 µM unless noted
About 83,000 compounds went through this panel and 20% of them were active in at least one assay; those are over-represented in the sample as a whole.
measure: growth (%)
Give bare numbers, in %.

Before answering, review these 8 worked examples.
Cc1[nH]c(C(=O)Nc2ccc(C(N)=O)cc2N2CCOC(C)C2)c(Cl)c1Cl (centres undefined) | 95.1
N#Cc1c(-c2cccs2)c(C#N)c(=O)n(Cc2nc3ccccc3[nH]2)c1N | 95.1
CC(O)c1cccc(/C(N)=N/C(N)=N/c2nc3ccccc3s2)c1 (centres undefined) | 96.9
CCc1cccc2c3c(sc12)C(c1ccc(F)cc1)C(C#N)=C(/N=C/c1ccc(Cl)cc1)O3 (centres undefined) | -43.4
CN(C)c1cccc2c(S(=O)(=O)Nc3cccc(-c4csc(NC(=O)CCCCCN5CCN(CCO)CC5)n4)c3)cccc12 | 84.4
O=C(N/N=C\c1ccc(F)cc1)c1ccc2nc(-c3ccc(Br)cc3)[nH]c2c1 | 81
N#Cc1c(-c2cccs2)cc(-c2cnccn2)nc1SCC(=O)N/N=C/c1ccccc1 | 67.3
CN1CCN(Cc2ccc(/C=N/Nc3ccnc4cc(Cl)ccc34)cc2)CC1 | 101

Please examine the following record next.
## Input // returns reported growth for input CN1CCN(c2ccc(Nc3nc(NCCNC(=O)c4ccccc4)c4sccc4n3)cc2)CC1
## Output 68.4

----------
- Test system: NCI-H322M lung
- method.notes: NCI-60 one-dose screen, 48 h (100 = growth as untreated, 0 = no growth, -100 = all killed)
- measurement.context: 10 µM unless noted
The panel holds about 83,000 compounds, 20% with a hit somewhere; the sample as a whole holds those more often. Active and inactive are the calls of the source. Rule for the calls: active = growth percent below 10; inactive = the rest.
measure: growth

Brc1cccc(-c2cc(-c3ccc4c(c3)OC=CO4)[nH]n2)c1 | 49.8% (inactive)
Cc1ccc(S(=O)(=O)c2nc(-c3ccc(F)cc3)oc2S(C)(=O)=O)cc1 | 95.9% (inactive)
COc1ccc(C2CC(c3cccc(OCCCCOc4cccc(C5=NOC(c6ccc(OC)cc6)C5)c4)c3)=NO2)cc1 (centres undefined) | 94.7% (inactive)
C#Cc1nc(/C=C\CCCCCCC(=O)NO)cs1 | 78.4% (inactive)
C/C(=N\NC(=O)Nc1ccccc1)c1nnn(-c2ccc([N+](=O)[O-])cc2)c1C | 99.1% (inactive)

Look up growth for the entries below, preserving their order.
1. CCOC(=O)c1cccnc1Nc1ccc(NC(=O)Nc2ccc(Cl)c(C(F)(F)F)c2)cc1
2. CCCCSC1=C(Cl)CN(c2ccccc2)C1=O
3. CN1CCN(Cc2ccc(NC(=O)c3cncc(C#Cc4cnc5ccc(OCC6COC6)nn45)c3)cc2C(F)(F)F)CC1
4. Cc1ccc2c(n1)C(=O)C(Cl)=C(Nc1cc(C(F)(F)F)cc(C(F)(F)F)c1)C2=O
5. Cc1ccc2c(n1)C(=O)C(Cl)=C(Nc1ccc(C(F)(F)F)cc1)C2=O
6. O=C(CCCCCC/C=C\c1csc(Br)n1)NO

## Output
68.9% (inactive)
101% (inactive)
-36.5% (active)
105% (inactive)
107% (inactive)
100% (inactive)

Look up growth for the entries below, preserving their order.
1. COc1ccc(-c2cc(-c3ccc(N(C)C)cc3)n3c(n2)nc2ccccc23)cc1
2. N/C(=N\C(N)=N\c1nc2ccccc2s1)c1ccc(Cl)cc1
3. C/C(=C(/C)C1CC1CCNC1CCC(NC(=O)OC(C)(C)C)CC1)c1ccccc1 (centres undefined)

## Output
["82.2% (inactive)", "88.3% (inactive)", "89.2% (inactive)"]

Look up growth for the entries below, preserving their order.
1. O=C1Nc2ccc(F)cc2/C1=C\C(=O)c1ccc(NS(=O)(=O)c2ccccc2)cc1
2. CC(Nc1ncnc2ccc(-c3cnc4cnccn34)cc12)c1ccccc1 (centres undefined)
3. CC[C@]12CC(C(=O)OC)=C3Nc4ccccc4[C@@]34CCN(C14)[C@@H]1c3cc4c(cc3O[C@@H]1[C@H]2O)NC1=C(C(=O)OC)C[C@@]2(CC)C3N(CC[C@@]143)C[C@H]1O[C@H]12 (some centres undefined)
4. CNC(=O)Nc1ccc(Nc2cc(-c3ccc(-n4cccn4)cc3)[nH]n2)c(C)c1

## Output
["93.8% (inactive)", "26.4% (inactive)", "28.8% (inactive)", "101% (inactive)"]

## Input // returns reported growth for input CCOC(=O)C1=C(C)NC(C)=C(C(=O)OCc2ccccc2)C1c1cccc(C#N)c1 (centres undefined)
## Output 69% (inactive)

----------
- Tested on: ACHN renal
- method.notes: NCI-60 one-dose screen, 48 h (100 = growth as untreated, 0 = no growth, -100 = all killed)
- measurement.context: 10 µM unless noted
This is part of a sample that, as a whole, favours compounds with a hit. Of some 83,000 tested, about 20% had one in any assay.
Cut-off 40% on growth: below means YES, at or above means NO.

Please review the entries below; each comes with its answer.
COc1cc2cc(Oc3ccc(NC(=O)Nc4ccc(F)c(C(F)(F)F)c4)cc3)c(C)nc2cc1OCCN(C)C | NO
Cc1ccc(N2CCN(C3=C(Cl)C(=O)c4ncccc4C3=O)CC2)cc1 | YES
Cn1ncc2ncc(-c3ccc4ncc(C#N)c(N5CCc6cc(F)c(Cl)cc65)c4c3)cc21 | YES

## Input Record COc1ccccc1Cn1cc(C#N)c(N)c1C(=O)c1ccc(Br)cc1 : is its growth strictly below 40%?
## Output NO

## Input Subsequent entry: COc1cc2c3c(cc4c5c(ccc4c3c1OC)OCO5)N(CCN(C)C)C2=O
## Output YES

## Input Subsequent entry: O=C1/C(=C/c2cc(F)cc(F)c2)Cc2cc3c(cc21)OCO3
## Output NO

## Input Subsequent entry: N/C(=N\C(N)=N\c1nc2ccccc2s1)c1ccc(Cl)cc1
## Output NO

## Input Subsequent entry: COc1ccc(NC2=C(Br)C(=O)C(C)=C(C)C2=O)cc1OC
## Output NO

## Input Subsequent entry: CCOc1cccc(/C(N)=N/C(N)=N/c2nc3ccccc3s2)c1
## Output NO

## Input Subsequent entry: CCNC(=O)Oc1ccc(/C(=C(/C)c2ccc(Cl)cc2)c2ccc(OCCN3CCCCCC3)cc2)cc1
## Output NO

----------
- Test system: MOLT-4 leukemia
- method.notes: NCI-60 one-dose screen, 48 h
- measurement.context: 10 µM unless noted
The panel holds about 83,000 compounds, 20% with a hit somewhere; the sample as a whole holds those more often. The source made the active and inactive calls. The calls were made as follows: active = growth percent below 10; inactive = the rest.
Please reply with one of these outcomes: YES for active, NO for inactive

Please review the entries below; each comes with its answer.
CNC(=O)c1cc(N2CCc3cc(NC(=O)Nc4ccc(N5CCOCC5)c(C(F)(F)F)c4)ccc32)ccn1 | NO
O=c1oc2ccc(-c3ccc(F)cc3F)cc2c(=O)n1-c1ccc(Br)cc1F | NO
CCC1=Cc2c(OC)cccc2OC12C=Cc1c(OC)cccc1O2 (centres undefined) | NO
Nn1c(=O)n(-c2cccc(C(F)(F)F)c2)c(=O)c2cc(-c3ccc(F)cc3F)ccc21 | YES
CC[C@]12CC(C(=O)OC)=C3Nc4ccccc4[C@@]34CCN(C14)[C@@H]1c3cc4c(cc3O[C@@H]1[C@H]2O)NC1=C(C(=O)OC)C[C@@]2(CC)C3N(CC[C@@]143)C[C@H]1O[C@H]12 (some centres undefined) | NO
Cc1csc(/N=C(N)/N=C(\N)c2cccc(C#N)c2)n1 | NO
Cc1ccc2c(n1)C(=O)C(Cl)=C(Nc1ccc(C(=O)OC(C)(C)C)cc1)C2=O | YES
CCCCc1nc2c(N)nc3ccccc3c2n1Cc1ccc(OC)cc1 | NO

## Input Test call for this molecule, please: COc1ccc(Cn2cc(C#N)c(N)c2C(C)=O)cc1
## Output NO

## Input Subsequent entry: Cc1ccc(S(=O)(=O)c2nc(-c3ccc(F)cc3)oc2S(C)(=O)=O)cc1
## Output YES

## Input Subsequent entry: CC1=C(C)C(=O)C(Nc2ccc3c(c2)OCCO3)=C(Br)C1=O
## Output YES

## Input Subsequent entry: O=C(/C=C/c1cccc(Br)c1)c1cccc(OCCCCOc2cccc(C(=O)/C=C/c3cccc(Br)c3)c2)c1
## Output NO

## Input Subsequent entry: C#CCN(C)CCCOc1ccc(NC(=O)CCCCCCC(=O)NO)cc1Cl
## Output NO
